Sourced from ChEMBL document CHEMBL1933031

assay-notes: Inhibition of PI3K-mediated Akt phosphorylation at Ser473 at 3 uM by Western blot analysis
The source made the active and inactive calls. The rule behind the calls is not given here.
assay-metric: inhibition

Worked set:
• CCCC(=O)Oc1cccc(-c2nc(N3CCOCC3)c3cc4ncccc4n3n2)c1 = Active
• CCC(=O)Oc1cccc(-c2nc(N3CCOCC3)c3cc4ncccc4n3n2)c1 = Active
• O=C(Oc1cccc(-c2nc(N3CCOCC3)c3cc4ncccc4n3n2)c1)c1ccco1 = inactive
• C=CC(=O)Oc1cccc(-c2nc(N3CCOCC3)c3cc4ncccc4n3n2)c1 = Active

inhibition measured on Oc1cccc(-c2nc(N3CCOCC3)c3cc4ncccc4n3n2)c1 = Active

inhibition measured on CCCC(CCC)C(=O)Oc1cccc(-c2nc(N3CCOCC3)c3cc4ncccc4n3n2)c1 = Active

inhibition measured on O=C(Oc1cccc(-c2nc(N3CCOCC3)c3cc4ncccc4n3n2)c1)c1ccncc1 = inactive

inhibition measured on CC(=O)Oc1cccc(-c2nc(N3CCOCC3)c3cc4ncccc4n3n2)c1 = Active
